Biological target: JAK3 kinase (Homo sapiens (Human))
Assay: JAK3 Homogeneous Time Resolved Fluorescence (HTRF) Assay
Type: binding
Settings: selectivity for IRAK4 over JAK3

# molecule, Ratio of JAK3 IC50 to IRAK4 IC50
data = [
    ("CC(C)(O)[C@H](F)CNC(=O)c1cnn2cc(-c3ccc(C#N)c(F)c3)cc2c1NC1CCOCC1 [Example 12]", ">200"),
    ("CC(C)Nc1c(C(=O)NC[C@@H](F)C(C)(C)O)cnn2cc(-c3ccc(F)cn3)cc12 [Example 18]", ">4167"),
    ("COC(=O)N[C@H]1CC[C@H](NC(=O)c2cnn3cc(-c4cccnc4)cc3c2NC(C)C)CC1 [Example 49]", ">4425"),
    ("CNC(=O)[C@H]1CC[C@H](NC(=O)c2cnn3cc(-c4ccncc4F)cc3c2NC(C)C)CC1 [Example 87]", ">16129"),
    ("CC(C)Nc1c(C(=O)NC[C@@H](F)C(C)(C)O)cnc2cc(-c3cncc(C(C)(C)O)c3)nn12 [Example 150]", ">18"),
    ("CC(C)Nc1c(C(=O)N[C@H]2CC[C@H](c3nc[nH]n3)CC2)cnn2cc(-c3ccncc3)cc12 [Example 90]", 2703),
    ("CC(=O)N[C@H]1CC[C@H](NC(=O)c2cnn3cc(-c4cnccc4C)cc3c2NC(C)C)CC1 [Example 70]", ">3571"),
    ("Nc1c(C(=O)NCCN2CCOCC2)cnn2cc(-c3ccncc3F)cc12 [Example 79]", ">455"),
    ("CC(C)Nc1c(C(=O)N[C@H]2CC[C@H](c3nc[nH]n3)CC2)cnn2cc(-c3ccncc3F)cc12 [Example 93]", ">21739"),
    ("CC(=O)N[C@H]1CC[C@H](NC(=O)c2cnn3cc(-c4cnc(F)cc4C)cc3c2NC(C)C)CC1 [Example 75]", "~3793"),
    ("CC(C)Nc1c(C(=O)N[C@H]2C[C@H](C(C)(C)O)C2)cnn2cc(-c3ccc(F)nc3)nc12 [Example 114]", ">60"),
    ("CC(C)(C)CNc1c(C(=O)NC[C@@H](F)C(C)(C)O)cnc2cc(-c3cccnc3)nn12 [Example 155]", ">556"),
    ("CC(C)Nc1c(C(=O)NC[C@@H](F)C(C)(C)O)cnc2cc(-c3cncc(F)c3)nn12 [Example 130]", ">91"),
    ("CC(C)Nc1c(C(=O)NC[C@@H](F)C(C)(C)O)cnn2cc(-c3cccnc3)nc12 [Example 99]", ">152"),
    ("CC(C)(O)[C@H](F)CNC(=O)c1cnc2cc(-c3cccnc3)nn2c1N[C@H]1CCN(c2cnc(F)nc2)C1 [Example 138]", ">16"),
]

----------
Target: JAK3 kinase (Homo sapiens (Human), UniProt P52333)
Sequence (P52333 whole entry): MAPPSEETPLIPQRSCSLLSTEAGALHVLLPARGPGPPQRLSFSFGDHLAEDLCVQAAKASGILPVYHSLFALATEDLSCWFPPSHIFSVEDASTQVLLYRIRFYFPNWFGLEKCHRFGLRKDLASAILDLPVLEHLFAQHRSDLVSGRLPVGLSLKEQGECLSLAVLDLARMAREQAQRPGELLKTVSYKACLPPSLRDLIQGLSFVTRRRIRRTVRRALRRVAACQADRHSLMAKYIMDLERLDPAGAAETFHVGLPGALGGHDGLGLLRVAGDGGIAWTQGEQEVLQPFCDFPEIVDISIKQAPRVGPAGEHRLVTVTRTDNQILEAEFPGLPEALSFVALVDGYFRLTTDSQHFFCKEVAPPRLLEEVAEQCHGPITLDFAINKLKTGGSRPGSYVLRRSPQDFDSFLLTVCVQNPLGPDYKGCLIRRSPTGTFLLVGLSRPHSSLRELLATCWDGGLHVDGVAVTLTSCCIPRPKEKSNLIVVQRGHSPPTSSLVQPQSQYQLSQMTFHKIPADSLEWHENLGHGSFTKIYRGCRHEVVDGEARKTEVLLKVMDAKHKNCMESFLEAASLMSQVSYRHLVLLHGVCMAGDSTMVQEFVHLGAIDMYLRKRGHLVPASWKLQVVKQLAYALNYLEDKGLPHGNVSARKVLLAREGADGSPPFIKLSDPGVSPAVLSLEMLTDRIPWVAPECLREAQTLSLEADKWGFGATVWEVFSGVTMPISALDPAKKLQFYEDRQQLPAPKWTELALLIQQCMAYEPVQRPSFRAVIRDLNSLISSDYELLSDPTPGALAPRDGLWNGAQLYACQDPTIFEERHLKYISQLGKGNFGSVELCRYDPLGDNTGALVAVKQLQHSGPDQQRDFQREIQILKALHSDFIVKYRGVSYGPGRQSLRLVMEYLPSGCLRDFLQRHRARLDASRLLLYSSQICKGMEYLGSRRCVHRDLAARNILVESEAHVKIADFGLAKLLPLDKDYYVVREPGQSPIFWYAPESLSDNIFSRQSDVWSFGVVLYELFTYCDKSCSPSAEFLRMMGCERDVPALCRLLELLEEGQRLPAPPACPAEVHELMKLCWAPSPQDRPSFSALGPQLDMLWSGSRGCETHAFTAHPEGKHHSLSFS
pIC50: −log10 of the molar value.
Here, each record is paired with measured pIC50 data.
assay metric: pIC50

# sample smiles, observed value
measured = [
    ("CC(=O)N[C@H]1CC[C@H](NC(=O)c2cnn3cc(-c4ccc(F)cn4)cc3c2NC(C)C)CC1", "< 4.30"),
    ("CC(C)Nc1c(C(=O)NC[C@@H](F)C(C)(C)O)cnn2cc(-c3ccc(N)nc3)cc12", "~4.54"),
    ("CC(C)Nc1c(C(=O)NC[C@@H](F)C(C)(C)O)cnn2cccc12", "< 4.30"),
    ("Cc1cc(-c2cc3c(NCCC(C)(C)O)c(C(=O)NC[C@@H](F)C(C)(C)O)cnn3c2)ccn1", "< 4.30"),
    ("CC(C)Nc1c(C(=O)NC[C@@H](F)C(C)(C)O)cnn2cc(-c3cccnc3)cc12", 4.51),
    ("CC(C)Nc1c(C(=O)NC[C@@H](F)C(C)(C)O)cnn2cc(-n3ncc4cncnc43)cc12", "< 4.30"),
    ("CC(C)Nc1c(C(=O)NC[C@@H](F)C(C)(C)O)cnn2cc(-c3ccccn3)cc12", "< 4.30"),
    ("COc1ccc(-c2cc3c(NC4CCOCC4)c(C(=O)NC[C@@H](F)C(C)(C)O)cnn3c2)cn1", "< 5.00"),
    ("CC(C)Nc1c(C(=O)NC[C@@H](F)C(C)(C)O)cnc2cc(-c3cncnc3)nn12", "< 5.00"),
    ("CC(C)(O)[C@H](F)CNC(=O)c1cnc2cc(-c3cccnc3)nn2c1NCC(F)F", "< 5.00"),
    ("CC(C)Nc1c(C(=O)NCCC(C)(C)O)cnn2cc(-c3ccncc3F)nc12", "< 4.30"),
    ("CC(C)Nc1c(C(=O)NC[C@@H](F)C(C)(C)O)cnc2cc(-c3ccc(=O)[nH]c3)nn12", "< 4.30"),
    ("CC(C)Nc1c(C(=O)N[C@H]2CC[C@H](C(N)=O)CC2)cnn2cc(-c3ccncc3F)cc12", "< 4.30"),
    ("CC(C)Nc1c(C(=O)NC[C@@H](F)C(C)(C)O)cnc2cc(-c3cncc(C#N)c3)nn12", "< 4.30"),
    ("CC(C)Nc1c(C(=O)NCCN2CCOCC2)cnn2cc(-c3ccncc3)cc12", "< 4.30"),
    ("CC(C)Nc1c(C(=O)NC[C@@H](F)C(C)(C)O)cnn2cc(-c3cncs3)nc12", "< 4.30"),
]

----------
Here, each record is paired with measured Ratio of JAK3 IC50 to IRAK4 IC50 data.
Target: JAK3 kinase (Homo sapiens (Human), UniProt P52333)
Assay: JAK3 Homogeneous Time Resolved Fluorescence (HTRF) Assay
Format: binding
Details: selectivity for IRAK4 over JAK3

# sample smiles, assay target, Ratio of JAK3 IC50 to IRAK4 IC50
measured = [
    ("CC(C)Nc1c(C(=O)NCCC(C)(C)O)cnn2cc(-c3ccncc3)cc12", "JAK3 kinase (Homo sapiens (Human), UniProt P52333)", ">5952"),
    ("CC(C)Nc1c(C(=O)N[C@H]2CC[C@H](c3nc[nH]n3)CC2)cnn2cc(-c3ccc(F)nc3)cc12", "JAK3 kinase (Homo sapiens (Human), UniProt P52333)", ">5000"),
    ("CC(C)Nc1c(C(=O)NC[C@@H](F)C(C)(C)O)cnn2cc(-c3cncs3)nc12", "JAK3 kinase (Homo sapiens (Human), UniProt P52333)", ">2273"),
    ("CC(C)Nc1c(C(=O)NC[C@@H](F)C(C)(C)O)cnc2cc(-c3cccc(F)c3)nn12", "JAK3 kinase (Homo sapiens (Human), UniProt P52333)", ">610"),
]

----------
Read-out record for UniProt:P52333: IC50

# compound, IC50
measured = [
    ("CC(C)(O)[C@H](F)CNC(=O)c1cnn2cc(-c3ccccc3)cc2c1NC1CC1 [Example 31]", "> 2 µM"),
    ("CC(C)Nc1c(C(=O)NC[C@@H](F)C(C)(C)O)cnn2cc(Nc3cc(C#N)ccn3)cc12 [Example 41]", "> 50 µM"),
    ("COc1cc(-c2cc3c(NC(C)C)c(C(=O)NCCC(C)(C)O)cnn3c2)c(F)cn1 [Example 78]", "> 50 µM"),
    ("Cc1cc(F)ncc1-c1cc2c(NCCC(C)(C)O)c(C(=O)NC[C@@H](F)C(C)(C)O)cnn2c1 [Example 24]", "> 10 µM"),
    ("COc1ncccc1-c1cc2c(NC(C)C)c(C(=O)N[C@H]3CC[C@H](NC(C)=O)CC3)cnn2c1 [Example 59]", "~33 µM"),
    ("CC(C)Nc1c(C(=O)NCCN2CCOCC2)cnn2cc(-c3ccncc3F)nc12 [Example 106]", "> 50 µM"),
    ("CC(C)Nc1c(C(=O)NC[C@@H](F)C(C)(C)O)cnn2cc(-c3cccnc3)nc12 [Example 99]", "> 10 µM"),
    ("CC(C)Nc1c(C(=O)NC[C@@H](F)C(C)(C)O)cnn2cc(-c3ccc(F)cn3)cc12 [Example 18]", "> 50 µM"),
    ("CC(C)Nc1c(C(=O)NC[C@@H](F)C(C)(C)O)cnc2cc(-c3cncc(F)c3)nn12 [Example 130]", "> 10 µM"),
    ("CC(C)Nc1c(C(=O)NC[C@@H](F)C(C)(C)O)cnc2cc(-c3cccc(=O)[nH]3)nn12 [Example 145]", "> 50 µM"),
    ("CC(C)Nc1c(C(=O)NC[C@@H](F)C(C)(C)O)cnn2cc(-c3ccc(C#N)nc3)nc12 [Example 101]", "> 50 µM"),
    ("CC(C)Nc1c(C(=O)N[C@H]2CC[C@H](NC(=O)CO)CC2)cnn2cc(-c3ccncc3F)cc12 [Example 68]", "> 50 µM"),
    ("CC(C)Nc1c(C(=O)NC[C@@H](F)C(C)(C)O)cnn2cc(-c3cncnc3)cc12 [Example 4]", "> 50 µM"),
    ("Cc1cc(F)ncc1-c1cc2c(NC(C)C)c(C(=O)N[C@H]3CC[C@H](c4nc[nH]n4)CC3)cnn2c1 [Example 91]", "> 50 µM"),
    ("CC(=O)N[C@H]1CC[C@H](NC(=O)c2cnn3cc(-c4ccncc4F)cc3c2NC(C)C)CC1 [Example 65]", "> 50 µM"),
    ("CC(=O)N[C@H]1CC[C@H](NC(=O)c2cnn3cc(-c4ccncc4)nc3c2NC(C)C)CC1 [Example 108]", "~49 µM"),
]
